# Tested on: CAL-12T
# EXPERIMENT DESCRIPTION: relative viability (nuclei count vs DMSO), 5 days (fraction); higher = more cells survive
# TEST PARAMETERS: first compound 158.11 µM
Hi! Just check whether relative viability is below 0.5. Below gives t, equal or above gives f.

O=C(O)CCCCC(CCSCc1ccccc1)SCc1ccccc1 (stereo unspecified) [CPI-613] + O=C(c1cc(Cc2n[nH]c(=O)c3ccccc23)ccc1F)N1CCN(C(=O)C2CC2)CC1 [Olaparib] (partner 8 µM) :: t

Just wondering, is relative viability of O=C(O)CCCCC(CCSCc1ccccc1)SCc1ccccc1 (stereo unspecified) [CPI-613] + C[C@]1(O)C[C@@H](c2nc(-c3ccc4ccc(-c5ccccc5)nc4c3)c3c(N)nccn32)C1 [Linsitinib] (partner 1 µM) below 0.5? f

is_below(relative viability, 0.5) for O=C(O)CCCCC(CCSCc1ccccc1)SCc1ccccc1 (stereo unspecified) [CPI-613] + NC(=O)Nc1cc(-c2cccc(F)c2)sc1C(=O)N[C@H]1CCCNC1 [AZD7762] (partner 0.2 µM) ? f

Dear colleague, could you confirm whether relative viability of O=C(O)CCCCC(CCSCc1ccccc1)SCc1ccccc1 (stereo unspecified) [CPI-613] + CC(=O)c1c(C)c2cnc(Nc3ccc(N4CCNCC4)cn3)nc2n(C2CCCC2)c1=O [Palbociclib] (partner 0.5 µM) falls below 0.5? Thanks. t

Hello, is relative viability of the following molecule strictly smaller than 0.5? O=C(O)CCCCC(CCSCc1ccccc1)SCc1ccccc1 (stereo unspecified) [CPI-613] + CC1(C)CCC(c2ccc(Cl)cc2)=C(CN2CCN(c3ccc(C(=O)NS(=O)(=O)c4ccc(N[C@H](CCN5CCOCC5)CSc5ccccc5)c(S(=O)(=O)C(F)(F)F)c4)cc3)CC2)C1 [Navitoclax] (partner 0.5 µM) t

----------
# Tested on: NCI-H1792
# EXPERIMENT DESCRIPTION: relative viability (nuclei count vs DMSO), 5 days (fraction); higher = more cells survive
# TEST PARAMETERS: first compound 0.04 µM
compounds and their reported relative viability
Response field accepts a number only; no unit should be typed.

So the reported relative viability for Cc1sc2c(c1C)C(c1ccc(Cl)cc1)=N[C@@H](CC(=O)OC(C)(C)C)c1nnc(C)n1-2 [JQ1] + CC(=O)c1c(C)c2cnc(Nc3ccc(N4CCNCC4)cn3)nc2n(C2CCCC2)c1=O [Palbociclib] (partner 0.5 µM) , on NCI-H1792, turned out to be 0.6

Query Cc1sc2c(c1C)C(c1ccc(Cl)cc1)=N[C@@H](CC(=O)OC(C)(C)C)c1nnc(C)n1-2 [JQ1] + N=C(N)NC(=N)NCCc1ccccc1 [Phenformin] (partner 250 µM) on NCI-H1792; relative viability returned: 0.323

Entry Cc1sc2c(c1C)C(c1ccc(Cl)cc1)=N[C@@H](CC(=O)OC(C)(C)C)c1nnc(C)n1-2 [JQ1] + C[C@@H](Oc1cc(-c2cnn(C3CCNCC3)c2)cnc1N)c1c(Cl)ccc(F)c1Cl [Crizotinib] (partner 1 µM) : relative viability on NCI-H1792 = 0.968

# relative viability measured on NCI-H1792 for item Cc1sc2c(c1C)C(c1ccc(Cl)cc1)=N[C@@H](CC(=O)OC(C)(C)C)c1nnc(C)n1-2 [JQ1] + Nc1ncn([C@H]2C[C@H](O)[C@@H](CO)O2)c(=O)n1 [Decitabine] (partner 2 µM) = 0.477

Tested system NCI-H1792; relative viability recorded for Cc1sc2c(c1C)C(c1ccc(Cl)cc1)=N[C@@H](CC(=O)OC(C)(C)C)c1nnc(C)n1-2 [JQ1] + CC1(C)CCC(c2ccc(Cl)cc2)=C(CN2CCN(c3ccc(C(=O)NS(=O)(=O)c4ccc(N[C@H](CCN5CCOCC5)CSc5ccccc5)c(S(=O)(=O)C(F)(F)F)c4)cc3)CC2)C1 [Navitoclax] (partner 0.5 µM) was 0.656

// returns relative viability for Cc1sc2c(c1C)C(c1ccc(Cl)cc1)=N[C@@H](CC(=O)OC(C)(C)C)c1nnc(C)n1-2 [JQ1] + CS(=O)(=O)CCNCc1ccc(-c2ccc3ncnc(Nc4ccc(OCc5cccc(F)c5)c(Cl)c4)c3c2)o1 [Lapatinib] (partner 2 µM) with NCI-H1792; value = 0.947

----------
compounds and their reported relative viability
# Tested on: A-427
# EXPERIMENT DESCRIPTION: relative viability (nuclei count vs DMSO), 5 days (fraction); higher = more cells survive
# TEST PARAMETERS: first compound 0.4 µM
// no unit string in output, number only

Note to self: relative viability recorded for Cc1sc2c(c1C)C(c1ccc(Cl)cc1)=N[C@@H](CC(=O)OC(C)(C)C)c1nnc(C)n1-2 [JQ1] + C[C@]1(O)C[C@@H](c2nc(-c3ccc4ccc(-c5ccccc5)nc4c3)c3c(N)nccn32)C1 [Linsitinib] (partner 1 µM) was 1.14

Lab book: relative viability of Cc1sc2c(c1C)C(c1ccc(Cl)cc1)=N[C@@H](CC(=O)OC(C)(C)C)c1nnc(C)n1-2 [JQ1] + O=C(c1cc(Cc2n[nH]c(=O)c3ccccc23)ccc1F)N1CCN(C(=O)C2CC2)CC1 [Olaparib] (partner 8 µM) noted as 0.83

Form field relative viability, entry Cc1sc2c(c1C)C(c1ccc(Cl)cc1)=N[C@@H](CC(=O)OC(C)(C)C)c1nnc(C)n1-2 [JQ1] + CCNC(=O)c1noc(-c2cc(C(C)C)c(O)cc2O)c1-c1ccc(CN2CCOCC2)cc1 [Luminespib] (partner 0.01 µM) : 0.847

----------
# Tested on: NCI-H23
# EXPERIMENT DESCRIPTION: relative viability (nuclei count vs DMSO), 5 days (fraction); higher = more cells survive
# TEST PARAMETERS: first compound 0.02 µM
ASSAY READOUT: relative viability
Enter a number only.

Short answer on NCI-H23 for CC(=O)O[C@@]12CO[C@@H]1C[C@H](O)[C@@]1(C)C(=O)[C@H](O)C3=C(C)[C@@H](OC(=O)[C@H](O)[C@@H](NC(=O)OC(C)(C)C)c4ccccc4)C[C@@](O)([C@@H](OC(=O)c4ccccc4)[C@H]21)C3(C)C [Docetaxel] + COc1cccc2cc(-c3nc([C@H]4CC[C@H](C(=O)O)CC4)n4ncnc(N)c34)[nH]c12 [OSI-027] (partner 0.5 µM) , relative viability: 0.107

----------
relative viability for assorted compounds
# Tested on: NCI-H1793
# EXPERIMENT DESCRIPTION: relative viability (nuclei count vs DMSO), 5 days (fraction); higher = more cells survive
# TEST PARAMETERS: first compound 0.253 µM
Answer with a bare number; do not write a unit.

Record excerpt, results attached:
Cc1cnc(-c2cnc(NCCNc3ccc(C#N)cn3)nc2-c2ccc(Cl)cc2Cl)[nH]1 + O=C(CCCCCCC(=O)Nc1ccccc1)NO [Vorinostat] (partner 1 µM) :: 0.666
O=c1[nH]c2ccccc2n1C1CCN(CCCC(c2ccc(F)cc2)c2ccc(F)cc2)CC1 [Pimozide] + Cc1nc(NC(=O)N2CCC[C@H]2C(N)=O)sc1-c1ccnc(C(C)(C)C(F)(F)F)c1 [Alpelisib] (partner 2 µM) :: 0.567

The record that follows has no relative viability shown yet.
Just so you know, measured relative viability for O=c1[nH]c2ccccc2n1C1CCN(CCCC(c2ccc(F)cc2)c2ccc(F)cc2)CC1 [Pimozide] + NC(=O)Nc1cc(-c2cccc(F)c2)sc1C(=O)N[C@H]1CCCNC1 [AZD7762] (partner 0.2 µM) came out at 0.36

----------
# Tested on: EMC-BAC-2
# EXPERIMENT DESCRIPTION: relative viability (nuclei count vs DMSO), 5 days (fraction); higher = more cells survive
# TEST PARAMETERS: first compound 0.04 µM
ASSAY READOUT: relative viability
Respond using a number only.

Some solved entries appear below for comparison.
Cc1sc2c(c1C)C(c1ccc(Cl)cc1)=N[C@@H](CC(=O)OC(C)(C)C)c1nnc(C)n1-2 [JQ1] + O=C(c1cc(Cc2n[nH]c(=O)c3ccccc23)ccc1F)N1CCN(C(=O)C2CC2)CC1 [Olaparib] (partner 8 µM) :: 0.447
Cc1sc2c(c1C)C(c1ccc(Cl)cc1)=N[C@@H](CC(=O)OC(C)(C)C)c1nnc(C)n1-2 [JQ1] + COc1cc2c(Oc3ccc(NC(=O)C4(C(=O)Nc5ccc(F)cc5)CC4)cc3F)ccnc2cc1OCCCN1CCOCC1 [Foretinib] (partner 0.25 µM) :: 1.04
Cc1sc2c(c1C)C(c1ccc(Cl)cc1)=N[C@@H](CC(=O)OC(C)(C)C)c1nnc(C)n1-2 [JQ1] + NC(=O)Nc1cc(-c2cccc(F)c2)sc1C(=O)N[C@H]1CCCNC1 [AZD7762] (partner 0.2 µM) :: 1.08

Documented relative viability of Cc1sc2c(c1C)C(c1ccc(Cl)cc1)=N[C@@H](CC(=O)OC(C)(C)C)c1nnc(C)n1-2 [JQ1] + CC(C)C[C@H](NC(=O)[C@H](Cc1ccccc1)NC(=O)c1cnccn1)B(O)O [Bortezomib] (partner 0.002 µM) : 1.09

Per the record, Cc1sc2c(c1C)C(c1ccc(Cl)cc1)=N[C@@H](CC(=O)OC(C)(C)C)c1nnc(C)n1-2 [JQ1] + COc1cccc2cc(-c3nc([C@H]4CC[C@H](C(=O)O)CC4)n4ncnc(N)c34)[nH]c12 [OSI-027] (partner 0.5 µM) has relative viability of 0.405

Just so you know, measured relative viability for Cc1sc2c(c1C)C(c1ccc(Cl)cc1)=N[C@@H](CC(=O)OC(C)(C)C)c1nnc(C)n1-2 [JQ1] + Cc1nc(NC(=O)N2CCC[C@H]2C(N)=O)sc1-c1ccnc(C(C)(C)C(F)(F)F)c1 [Alpelisib] (partner 2 µM) came out at 0.663
